Entries and their IC50 values follow.
- Study system: human plasma BChE (Homo sapiens)
- Construct: the plasma was separated and diluted; from tissue; host or cells: human plasma from freshly collected blood, diluted 1:125
- Sequence (P06276 29-602): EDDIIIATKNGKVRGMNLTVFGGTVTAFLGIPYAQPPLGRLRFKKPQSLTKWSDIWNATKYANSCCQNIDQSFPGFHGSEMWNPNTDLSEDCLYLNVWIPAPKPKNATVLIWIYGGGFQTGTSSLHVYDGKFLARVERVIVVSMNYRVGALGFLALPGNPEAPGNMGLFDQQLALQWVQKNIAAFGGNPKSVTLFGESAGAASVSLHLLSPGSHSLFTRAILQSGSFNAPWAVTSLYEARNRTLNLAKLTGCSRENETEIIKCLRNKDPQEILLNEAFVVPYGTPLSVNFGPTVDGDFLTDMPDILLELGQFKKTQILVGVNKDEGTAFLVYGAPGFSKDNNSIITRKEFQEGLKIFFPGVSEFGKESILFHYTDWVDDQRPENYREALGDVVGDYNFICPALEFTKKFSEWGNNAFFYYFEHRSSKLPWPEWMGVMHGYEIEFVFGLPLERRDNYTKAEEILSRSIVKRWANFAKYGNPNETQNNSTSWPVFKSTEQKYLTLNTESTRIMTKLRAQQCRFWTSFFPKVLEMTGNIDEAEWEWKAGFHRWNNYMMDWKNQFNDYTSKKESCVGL
- Protocol details: biochemical
Readout name: IC50 (nM)

| Compound | Study system | Units of measure | Numeric value |
| --- | --- | --- | --- |
| CN1c2ccc(OC(=O)Nc3ccccc3)cc2[C@]2(C)CCS[C@H]12 | human plasma BChE (Homo sapiens) | nM | 1660 |
| CC(C)c1ccccc1NC(=O)Oc1ccc2c(c1)[C@]1(C)CCS[C@@H]1N2C | human plasma BChE (Homo sapiens) | nM | 963 |
| CCc1ccccc1NC(=O)Oc1ccc2c(c1)[C@]1(C)CCS[C@@H]1N2C | human plasma BChE (Homo sapiens) | nM | 3430 |
| CC(C)c1ccc(NC(=O)Oc2ccc3c(c2)[C@]2(C)CCS[C@@H]2N3C)cc1 | human plasma BChE (Homo sapiens) | nM | 45.3 |
| Cc1ccccc1NC(=O)Oc1ccc2c(c1)[C@]1(C)CCS[C@@H]1N2C | human plasma BChE (Homo sapiens) | nM | 5280 |
| Cc1ccc(NC(=O)Oc2ccc3c(c2)[C@]2(C)CCS[C@@H]2N3C)c(C)c1 | human plasma BChE (Homo sapiens) | nM | 1870 |
| CN(C)C(=O)Oc1ccc2c(c1)[C@]1(C)CCS[C@@H]1N2C | human plasma BChE (Homo sapiens) | nM | 22.5 |
| CNC(=O)Oc1ccc2c(c1)[C@]1(C)CCO[C@@H]1N2C [(-)-physovenine] | human plasma BChE (Homo sapiens) | nM | 2.7 |
| CCCCCCCNC(=O)Oc1ccc2c(c1)[C@]1(C)CCS[C@@H]1N2C | human plasma BChE (Homo sapiens) | nM | 6.8 |

Source of measurements: patent US5378723A
